All figures here come from patent US20210040232A1.

tgt: T1, soluble Macaca fascicularis CTLA-4 expressed with a C-terminal myc-myc-polyhistidine tag (Macaca fascicularis)
T1 construct: soluble protein; also called mf CTLA-4.mmh; mfCTLA4.mmh
T1 chain: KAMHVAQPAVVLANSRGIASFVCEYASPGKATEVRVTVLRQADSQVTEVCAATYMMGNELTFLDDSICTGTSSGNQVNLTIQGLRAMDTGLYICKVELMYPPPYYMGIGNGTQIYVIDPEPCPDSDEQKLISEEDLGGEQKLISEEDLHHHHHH
assay-procedure: SPR, mAb capture, 25 C
Below: a set of entries, each annotated with reported kon.

| binder | kon [M⁻¹ s⁻¹] |
| --- | --- |
| H1H19274P (antibody, human IgG1, V domains shown) VH: QVQLQESGPGLVKPSETLSLTCTVSGGSINSYYWTWIRQPPGKGLEWIGYVYYSGSTTYNPSLKSRVTISVDTSKNQFFLNLNSVTAAETAVYYCARGTLGYYGMDVWGQGTTVTVSS VL: EIVLTQSPGTLSLSPGERATLSCRASQSFSNNYLAWYQQKPGQAPRLLIYGTSIRATGIPDRFSGSGSGTDFTLAISRLEPEDFAVYYCQQYGRSPLTFGGGTKVEIK | 522000 |
| H1H19280P (antibody, human IgG1, V domains shown) VH: QLQLQESGPGLVKPSETLSLTCIVSGGSTSSNTYYWGWIRQPPGKGLEWIGTIHYSGNPYYDPSLKSRVTISVDTSKNHFSLKLNSVTAADTAVYYCTRQYINFFDFWGQGTLVTVSS VL: EIVLTQSPATLSLSPGERVTLSCRASQSISRYLAWYQQKPGQAPRVLIYDASNRATDIPARFSGSGSGTDFTLTISSLEPEDFAVYYCQQRSNWPITFGQGTRLEIK | 320000 |
